// provenance: PubChem BioAssay (NCI)

# Tested on: M14 melanoma
# assay.details: NCI tumour cell line growth inhibition, 48 h
reported.metric: TGI

[
  {
    "compound": "O=C1CSC(c2ccccc2)N1c1ccc(-c2ccc(-n3c(-c4ccccc4)nc4ccccc4c3=O)cc2)cc1 (configuration not stated)",
    "reported.metric": "TGI",
    "readout.value": "> 100 µM"
  },
  {
    "compound": "CC(C)=CCC/C(C)=C/Cc1c2c(c3oc(-c4ccc(O)c(O)c4)c(O)c(=O)c3c1O)C=CC(C)(C)O2",
    "reported.metric": "TGI",
    "readout.value": "9.42 µM"
  },
  {
    "compound": "C/C=C\\C1OC1(C)c1cc(=O)c2c(C)cc3c(c2o1)C(=O)c1c(O)c(C2CC(C)(N(C)C)C(OC(C)=O)C(C)O2)cc(C2CC(N(C)C)C(O)C(C)O2)c1C3=O (configuration not stated)",
    "reported.metric": "TGI",
    "readout.value": "0.00653 µM"
  },
  {
    "compound": "Nc1nc2ccc(CNc3ccc(C(=O)NC(CC(=O)O)C(=O)O)cc3)cc2c(=O)[nH]1 (configuration not stated)",
    "reported.metric": "TGI",
    "readout.value": "> 100 µM"
  },
  {
    "compound": "Cc1ccc(NC(=S)NNC(=S)Nc2ccc(C)cc2)cc1",
    "reported.metric": "TGI",
    "readout.value": "> 100 µM"
  },
  {
    "compound": "CCOC(=O)c1ccc(N=C2Sc3nc4ccccc4n3C2=Nc2ccc(C(=O)OCC)cc2)cc1",
    "reported.metric": "TGI",
    "readout.value": "37.1 µM"
  },
  {
    "compound": "CC1=C2CC[C@@]3(C)C(=CCC3O)C2(C)CCC1=O (some centres not stated)",
    "reported.metric": "TGI",
    "readout.value": "> 100 µM"
  },
  {
    "compound": "CS(=O)(=O)Nc1cc(-c2ccc3ncc(C#N)c(Nc4ccc(F)c(Cl)c4)c3c2)cnc1Cl",
    "reported.metric": "TGI",
    "readout.value": "1.92 µM"
  }
]

Let's switch to this compound now.
Given Nc1c(C(=O)Nc2cccc(Cl)c2)sc2nc3c(cc12)C(O)CCC3 (configuration not stated) , report its TGI on M14 melanoma.
> 49.7 µM
